The measurements presented in this section are drawn from patent US9682941B2.

- testSystem: aromatase (Homo sapiens)
- Construct: JEG-3 which constitutively expresses high amount of aromatase and steroid sulfatase; endogenous in cells
- Sequence (P11511 whole entry): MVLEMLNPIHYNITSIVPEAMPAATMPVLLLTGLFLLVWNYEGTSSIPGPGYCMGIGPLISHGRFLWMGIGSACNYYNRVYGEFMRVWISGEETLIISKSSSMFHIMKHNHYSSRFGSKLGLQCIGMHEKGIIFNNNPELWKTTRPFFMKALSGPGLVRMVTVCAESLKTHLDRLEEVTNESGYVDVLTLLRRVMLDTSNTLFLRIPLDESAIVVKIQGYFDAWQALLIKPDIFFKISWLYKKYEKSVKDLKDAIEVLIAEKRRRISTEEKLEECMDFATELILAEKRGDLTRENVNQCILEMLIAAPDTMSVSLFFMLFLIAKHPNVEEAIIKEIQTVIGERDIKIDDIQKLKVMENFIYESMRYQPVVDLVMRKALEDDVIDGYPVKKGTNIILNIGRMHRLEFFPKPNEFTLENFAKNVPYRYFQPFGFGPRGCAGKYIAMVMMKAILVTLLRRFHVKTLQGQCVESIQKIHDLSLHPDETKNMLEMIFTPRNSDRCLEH
- procedureSummary: Aromatase inhibition assay in JEG-3 cells ([1β-3H] androstenedione, tritiated water release)
- conditions: 1.25 hour incubation, duplicate
measureName: IC50 (nM)
Lab book: enter the figure in nM, no units written.

Previously resolved entries follow.
                                  molsmiles                testsystem  testvalue
0  N#Cc1ccc(Cn2cnc3ccccc32)nc1-c1ccc(OS(N)(=O)=O)cc1  aromatase (Homo sapiens)        3.2
1  N#Cc1ccc(Cn2cnc3cccnc32)cc1-c1ccc(OS(N)(=O)=O)cc1  aromatase (Homo sapiens)        0.5
2  N#Cc1cnc(Nn2cnc3cccnc32)nc1-c1ccc(OS(N)(=O)=O)cc1  aromatase (Homo sapiens)       56.1
3  CN(c1ccc(C#N)c(-c2ccc(OS(N)(=O)=O)cc2)c1)n1nnc2ccccc21  aromatase (Homo sapiens)       13.1
4  CN(c1ncc(C#N)c(-c2ccc(OS(N)(=O)=O)cc2)n1)n1cnc2ccccc21  aromatase (Homo sapiens)        6.4
5  N#Cc1ccc(Nn2nnc3cccnc32)cc1-c1ccc(OS(N)(=O)=O)cc1  aromatase (Homo sapiens)        5.1

Shift focus to the following entry.
Give the measured IC50 for N#Cc1cnc(Cn2cnc3cccnc32)cc1-c1ccc(OS(N)(=O)=O)cc1
2

---

- testSystem: steroid sulfatase (Homo sapiens)
- Construct: JEG-3 which constitutively expresses high amount of aromatase and steroid sulfatase; endogenous in cells
- procedureSummary: Steroid sulfatase (STS) inhibition assay in JEG-3 cells ([6,7-3H] estrone sulfate)
- conditions: 1 hour at 37° C., duplicate
- Method: Aromatase and steroid sulfatase enzymes inhibitions were evaluated in the human chorionic carcinoma cell line JEG-3 which constitutively expresses high amount of aromatase and steroid sulfatase. For STS assay, JEG-3 cells were seeded into 24-well culture plates at 150,000 cells/ml/well and maintained in MEM containing supplements overnight. […] Experiments are performed in duplicate. The inhibitory concentration of 50% of the enzymatic activity is calculated.
pIC50: −log10 of the molar value.
Cut-off 8 on pIC50, inclusive. At or above means Met; below means Not met.

Take a look at these entries with their results.
                                  molsmiles                        testsystem  classname
0  N#Cc1ccc(Nn2nnc3ccccc32)cc1-c1ccc(OS(N)(=O)=O)cc1  steroid sulfatase (Homo sapiens)    Not met
1  CN(c1ccc(C#N)c(-c2ccc(OS(N)(=O)=O)cc2)c1)n1cnc2ccccc21  steroid sulfatase (Homo sapiens)    Not met
2  CN(c1ccc(C#N)c(-c2ccc(OS(N)(=O)=O)cc2)n1)n1cnc2cccnc21  steroid sulfatase (Homo sapiens)    Not met
3  CN(c1cnc(C#N)c(-c2ccc(OS(N)(=O)=O)cc2)c1)n1cnc2cccnc21  steroid sulfatase (Homo sapiens)    Not met

Now consider a different compound.
Hi, just wondering whether N#Cc1cnc(Cn2cnc3ccccc32)nc1-c1ccc(OS(N)(=O)=O)cc1 shows pIC50 of 8 or higher.
Met

---

- testSystem: steroid sulfatase (Homo sapiens, UniProt P08842)
- Construct: JEG-3 which constitutively expresses high amount of aromatase and steroid sulfatase; endogenous in cells
- Sequence (P08842 22-583): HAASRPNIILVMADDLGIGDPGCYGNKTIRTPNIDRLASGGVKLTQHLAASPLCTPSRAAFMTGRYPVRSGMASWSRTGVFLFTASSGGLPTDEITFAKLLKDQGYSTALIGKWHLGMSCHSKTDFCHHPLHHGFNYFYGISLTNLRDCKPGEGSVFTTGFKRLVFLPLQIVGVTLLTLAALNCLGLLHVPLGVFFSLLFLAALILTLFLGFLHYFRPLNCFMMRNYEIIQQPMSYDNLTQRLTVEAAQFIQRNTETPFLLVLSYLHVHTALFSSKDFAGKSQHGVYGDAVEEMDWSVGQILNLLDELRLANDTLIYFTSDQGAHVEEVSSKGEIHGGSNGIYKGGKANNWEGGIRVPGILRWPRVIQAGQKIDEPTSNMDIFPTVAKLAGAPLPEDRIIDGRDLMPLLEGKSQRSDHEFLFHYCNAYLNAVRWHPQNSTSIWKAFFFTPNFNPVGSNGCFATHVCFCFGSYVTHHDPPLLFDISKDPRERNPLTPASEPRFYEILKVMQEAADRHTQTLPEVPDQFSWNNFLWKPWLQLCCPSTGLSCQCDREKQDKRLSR
- procedureSummary: Steroid sulfatase (STS) inhibition assay in JEG-3 cells ([6,7-3H] estrone sulfate)
- conditions: 1 hour at 37° C., duplicate
The following compounds are listed with their measured pIC50 values.
# log scale: pIC50 equals minus log10 of the concentration in mol/L

Previously resolved entries follow.
In [3]: df
Out[3]:
                                  molsmiles  testvalue
0  N#Cc1ccc(Nn2nnc3cccnc32)cc1-c1ccc(OS(N)(=O)=O)cc1       7.53
1  CN(c1cc(-c2ccc(OS(N)(=O)=O)cc2)c(C#N)cn1)n1cnc2ccccc21       7.42
2  N#Cc1cnc(Cn2cnc3cc(F)c(F)cc32)nc1-c1ccc(OS(N)(=O)=O)cc1       8.27

Next, consider the following compound.
Read the entry N#Cc1ncc(Nn2cnc3ccccc32)nc1-c1ccc(OS(N)(=O)=O)cc1 and write its reported pIC50.
7.71
